# STUDY TARGET: T1, Mouse Fc-human GDF15 (Mu IgG1Fc_Fxa_Hu GDF15) (human)
# T1 construct: Whole entry is the fusion: mouse IgG1 Fc, FXa site and linker, mature human GDF15; described as dimeric; also called Murine dimeric IgG1 Fc-human GDF-15 with FXa cleavage site; control human GDF15
# T1 chain: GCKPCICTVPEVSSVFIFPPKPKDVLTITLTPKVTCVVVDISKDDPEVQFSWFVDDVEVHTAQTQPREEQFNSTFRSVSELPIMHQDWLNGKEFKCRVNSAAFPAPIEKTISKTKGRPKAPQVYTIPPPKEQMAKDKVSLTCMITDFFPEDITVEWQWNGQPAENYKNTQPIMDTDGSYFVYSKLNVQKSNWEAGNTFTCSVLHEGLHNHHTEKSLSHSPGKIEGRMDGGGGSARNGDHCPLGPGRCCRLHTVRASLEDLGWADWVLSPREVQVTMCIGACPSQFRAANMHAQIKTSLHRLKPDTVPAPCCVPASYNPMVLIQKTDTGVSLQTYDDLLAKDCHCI
# ASSAY DETAILS: SPR BIAcore T200, 37C; Fc-GDF15 captured, IgG as analyte; average of runs
# Description: Mouse Fc-human GDF15 (Mu IgG1Fc_Fxa_Hu GDF15; SEQ ID NO:2), Mouse Fc-mouse GDF15 (Mu IgG1Fc_Fxa_Mu GDF15; SEQ ID NO:5) and Mouse Fc-cynomolgus monkey GDF15 (Mu IgG1Fc_Fxa_Cyno GDF15; SEQ ID NO:4) were captured onto three different flow cells of a CM4 sensorchip (catalogue number BR100534, GE Healthcare) surface using the Mouse Antibody Capture Kit (BR100838, GE Healthcare) according to the manufacturer's protocol. […]

[
  {
    "BINDER": "GDF15_003 (antibody, human IgG1, kappa, V domains shown, Tested in bivalent format) VH: QVQLVQSGAEVKKPGSSVKVSCKASGYTFTSYNIDWVRQAPGQGLEWMGQINPNNGLAFYNQKFQGRVTITADESTSTAYMELSSLRSEDTAVYYCAREQITTVGAMDYWGQGTLVTVSS VL: EIVLTQSPATLSLSPGERATLSCRASQSLSSYLAWYQQKPGQAPRLLIYDAKNRADGIPARFSGSGSGTDFTLTISSLEPEDFAVYYCQQFSSDPYTFGQGTKVEIKR",
    "kon": "3.03e+06 M⁻¹ s⁻¹"
  },
  {
    "BINDER": "GDF15_001 (antibody, human IgG1, kappa, V domains shown, Tested in bivalent format; IgG1 heavy chain, kappa light chain; also called ponsegromab; PF-06946860) VH: QVQLVQSGAEVKKPGSSVKVSCKASGYTFSSYNIDWVRQAPGQGLEWMGGINPIFGTAFYNQKFQGRVTITADESTSTAYMELSSLRSEDTAVYYCAREAITTVGAMDHWGQGTLVTVSS VL: EIVLTQSPATLSLSPGERATLSCRTSQSVHNYLAWYQQKPGQAPRLLIYDASTRADGIPARFSGSGSGTDFTLTISSLEPEDFAVYYCQQFWSWPWTFGQGTKVEIKR",
    "kon": "1.97e+06 M⁻¹ s⁻¹"
  },
  {
    "BINDER": "GDF15_004 (antibody, human IgG1, kappa, V domains shown, Tested in bivalent format) VH: QVQLVQSGAEVKKPGSSVKVSCKASGYTFSSYNIDWVRQAPGQGLEWMGQINPNNGLANYAQKFQGRVTITADESTSTAYMELSSLRSEDTAVYYCAREAITTIGAMDYWGQGTLVTVSS VL: EIVLTQSPATLSLSPGERATLSCRTSESVHSYLAWYQQKPGQAPRLLIYDASTRADGIPARFSGSGSGTDFTLTISSLEPEDFAVYYCQQFWSDPYTFGQGTKVEIKR",
    "kon": "2.09e+06 M⁻¹ s⁻¹"
  }
]
